- Assayed system: T1, rMOR-1A (rat)
- T1 chain: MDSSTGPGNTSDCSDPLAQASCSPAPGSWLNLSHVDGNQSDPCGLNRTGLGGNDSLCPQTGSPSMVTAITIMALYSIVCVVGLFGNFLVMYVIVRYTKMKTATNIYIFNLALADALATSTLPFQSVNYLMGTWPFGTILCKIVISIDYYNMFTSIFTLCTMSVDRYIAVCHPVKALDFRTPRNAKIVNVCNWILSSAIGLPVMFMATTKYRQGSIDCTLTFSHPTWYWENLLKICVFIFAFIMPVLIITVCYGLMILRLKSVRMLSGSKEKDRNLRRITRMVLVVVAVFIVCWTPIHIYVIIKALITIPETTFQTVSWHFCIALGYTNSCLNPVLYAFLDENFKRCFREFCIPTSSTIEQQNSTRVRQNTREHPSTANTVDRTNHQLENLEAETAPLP
- Experiment notes: competition against [3H]DAMGO (~1 nM), membranes of stable CHO transfectants
Test readout: pKi
Bear in mind: pKi is minus log10 of a mol/L concentration; give just that figure.

Given item YGGFMTSEKSQTPLVTLFKNAIIKNAYKKGE (peptide, UniProt P01189 237-267, looked up, also called B-Endorphin) [β-Endorphin] , the value recorded as its pKi is 7.98

Values compiled from patent US20070258988A1.
